Target: UniProt P34972
Sequence (P34972 whole entry): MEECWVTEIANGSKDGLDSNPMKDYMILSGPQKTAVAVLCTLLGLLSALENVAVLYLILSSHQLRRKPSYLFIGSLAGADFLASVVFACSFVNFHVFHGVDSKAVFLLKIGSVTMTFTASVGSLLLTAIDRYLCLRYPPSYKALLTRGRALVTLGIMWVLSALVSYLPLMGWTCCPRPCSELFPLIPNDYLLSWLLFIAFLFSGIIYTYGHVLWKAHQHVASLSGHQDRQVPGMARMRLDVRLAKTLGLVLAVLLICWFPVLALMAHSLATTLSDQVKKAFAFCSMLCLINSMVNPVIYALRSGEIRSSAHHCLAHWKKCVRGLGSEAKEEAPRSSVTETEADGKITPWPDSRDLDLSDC
measurementKind: pKi
pKi is defined as minus the log10 of a concentration measured in mol/L.

Find the measured pKi: item C=C(C)[C@@H]1CC[C@]2(C(=O)O)CC[C@]3(C)[C@H](CC[C@@H]4[C@@]5(C)CC[C@H](O)C(C)(C)[C@@H]5CC[C@]43C)[C@@H]12 , target or system UniProt P34972.
4.39
